Target entity: D(1A) dopamine receptor (Homo sapiens, UniProt P21728); further: assay procedure not described here
Sequence (P21728 whole entry): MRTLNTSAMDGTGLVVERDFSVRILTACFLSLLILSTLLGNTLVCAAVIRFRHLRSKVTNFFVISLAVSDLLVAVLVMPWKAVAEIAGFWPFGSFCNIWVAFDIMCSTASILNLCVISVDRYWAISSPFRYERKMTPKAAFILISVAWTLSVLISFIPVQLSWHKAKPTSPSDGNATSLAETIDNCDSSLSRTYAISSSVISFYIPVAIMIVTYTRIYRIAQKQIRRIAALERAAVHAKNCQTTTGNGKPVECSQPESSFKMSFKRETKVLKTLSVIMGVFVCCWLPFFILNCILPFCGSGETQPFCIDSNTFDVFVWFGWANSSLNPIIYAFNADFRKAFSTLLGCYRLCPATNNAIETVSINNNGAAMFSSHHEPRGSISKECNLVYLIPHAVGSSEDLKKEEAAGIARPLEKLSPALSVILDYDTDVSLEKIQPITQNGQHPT
Assay type: functional, cell-based
Property name: AC50

- CC(C)COCC(CN(Cc1ccccc1)c1ccccc1)N1CCCC1 (centres undefined) [BEPRIDIL]: > 30 µM
- CC1=C(C)C(=O)C(C(CCCCCC(=O)O)c2ccccc2)=C(C)C1=O (centres undefined) [SERATRODAST]: > 30 µM
- CC(C(=O)O)c1ccc2c(c1)[nH]c1ccc(Cl)cc12 (centres undefined) [CARPROFEN]: > 10 µM
- CC(=O)SC[C@@H](C)C(=O)N1CCC[C@H]1C(=O)N[C@@H](Cc1ccccc1)C(=O)O: > 30 µM
- Cc1cccc(N2CC(CO)OC2=O)c1 (centres undefined) [TOLOXATONE]: > 30 µM
- CCC1(c2ccccc2)CCC(=O)NC1=O (centres undefined) [GLUTETHIMIDE]: > 10 µM
- CN1CCN(C2=Nc3ccccc3Oc3ccc(Cl)cc32)CC1 [LOXAPINE]: > 10 µM
- CC(N)C12CC3CC(CC(C3)C1)C2 (centres undefined) [RIMANTADINE]: > 10 µM
- C/C(=C\C(=O)OCCCCCCCCC(=O)O)C[C@@H]1OC[C@H](C[C@@H]2O[C@H]2[C@@H](C)[C@H](C)O)[C@@H](O)[C@H]1O [MUPIROCIN]: > 10 µM

The origin of these recorded values is ChEMBL document CHEMBL5291721.
